Tested on: MS2 coat protein
Assay: apparent KD of MS2 coat protein; designed switch direction (-1 OFF switch, 1 ON switch): -1; higher = weaker reporter binding
Settings: Eterna round: R95; input ligand: FMN 200 uM
# apparent KD of MS2 coat protein per record follows

In the examples that follow, each entry is paired with its recorded apparent KD of MS2 coat protein.
| BIOSEQUENCE | RESULT |
| --- | --- |
| GGGAUGUCAGGAUAUCCGAAAGUCUGCCAAUACGGCAGACAGGAGAAGGGACAUGAGGAUCACCCAUGUAAAGA [Aedxear] (puzzle: Exclusion 4) | 120 nM |
| AAGAGUGCAGGAUAUACUUGAUAGGGUAAGGUGAGUGAGGGACAUGAGGAUCACCCAUGUAGAAGGGCAGAGAG [JR_Exclu2_Sub058] (puzzle: Exclusion 2) | 25.8 nM |
| GCGAAAGCAAGCAAGUGAAACAUGAGGAUCACCCAUGUACUCAUUUGCUCGUCUUGUAAGCUAUGCGAAAGCAUAGC [Mat - Sensor v3 - turn-off var 1 - Eli Mod - D51] (puzzle: Sensor v3, turn-off variant 1) | 10.7 nM |
| AGGAGCAGAGGGAGAUCCAACAUGAGGAUCACCCAUGUCUCAUAAGCUUUUUGCUCAUCUUAUUGUACCUUGGUGCU [Mat - Sensor v3 - turn-off var 1 - JL Mod - D26] (puzzle: Sensor v3, turn-off variant 1) | 35.7 nM |
| UUACCAUGCCGCCUAAUAGCUUUUUGCUCGUCUUAUAUUACAUGAGGAUCACCCAUGUAGAUCAUGUGGCGUGACCU [JL ViennaUCT Maridi mod 2] (puzzle: Sensor v3, turn-off variant 2) | 126 nM |

# input Provide measured apparent KD of MS2 coat protein value, entry: GAGAACGUAGGAUAUACAUGAGGAUCACCCAUGUGAGGAAGGAGUAGGAAGAGUGGAAGUAGAAGGACGGAGAG [JR_Exclu3_Sub072] (puzzle: Exclusion 3)
# output 47.4 nM

# input Provide measured apparent KD of MS2 coat protein value, entry: UUUUAACAUGAGGAUCACCCAUGUAAGGAUAUGCUAUUUUUUUUUUUUUUUUUUUUUUGCAGAAGGUACAUUUU [My solution] (puzzle: Exclusion 1)
# output 33.8 nM

# input Provide measured apparent KD of MS2 coat protein value, entry: ACUAGCUUUUUGCAUUUUAGGUUUGUUGCUUCGUAUGUAACAUGAGGAUCACCCAUGUAUUACUGAUGUCGUCGUUU [JR_SV3TOV2_Sub090] (puzzle: Sensor v3, turn-off variant 2)
# output 18.4 nM

# input Provide measured apparent KD of MS2 coat protein value, entry: GCAGGCGACUAGGCUCGUCUUAUUUUGAGAAGAUUGAAAACAUGAGGAUCACCCAUGUUUGUGGGAGAGUUGGAGUG [JR_SV3TOV2_Sub013] (puzzle: Sensor v3, turn-off variant 2)
# output 59.4 nM

# input Provide measured apparent KD of MS2 coat protein value, entry: GGUCGUAUGAGUAGUCCUCAUUGAAGAGAUUGGUAAGAUACAUGAGGAUCACCCAUGUUUGAACAAGCUUUUGCUCU [JR_Sv3TOV2_Sub008] (puzzle: Sensor v3, turn-off variant 2)
# output 96 nM

# input Provide measured apparent KD of MS2 coat protein value, entry: GGUUGUUUUUUCCGUUCUUACAUGAGGAUCACCCAUGUUUCUUGUCGUGCUCGCGUUGCUCGUCUGUCUGUCUGUUG [salish99_TOv1_r3_073] (puzzle: Sensor v3, turn-off variant 1)
# output 48.5 nM

# input Provide measured apparent KD of MS2 coat protein value, entry: GUGGUGGGUUUUCCGAGUAACAUGAGGAUCACCCAUGUAUUAGUUUGAUGUAUCAAGCGAAUGGCUCGUCUUAUAUA [JR_SV3TOV1_Sub045] (puzzle: Sensor v3, turn-off variant 1)
# output 128 nM

Values were extracted from the supplement of paper PMC9170038.
